system: NCI-H226; experiment: NCI tumour cell line growth inhibition, 48 h
Calls of active or inactive are those of the source. Rule as the data show it: active = GI50 up to about 1.1 µM and inactive = higher.
OBSERVATION_TYPE: GI50

Some solved cases for reference:
*Q* Sample O=C1C2c3[nH]c4ccccc4c3C3CCCCCC3C2C(=O)N1c1ccccc1 (stereo not drawn) — what was its GI50?
*A* 21.3 µM (inactive)

*Q* How about CC(C)[C@](O)(C(=O)OCC1=CC[N+]2([O-])CC[C@@H](O)[C@@H]12)[C@H](C)O (stereo partly drawn) [INDICINE N-OXIDE] ?
*A* > 10000 µM (inactive)

New cases:
*Q* Look up GI50 for this molecule: `Nn1c(-c2ccccc2)nc2ccc(Br)cc2c1=O`
*A* 57.5 µM (inactive)

*Q* And for COc1ccc(C2c3cc4c(cc3OC(NNC(N)=O)C2C)OCO4)cc1 (stereo not drawn) ?
*A* 14.9 µM (inactive)

*Q* Next up: `O=C1C=C(NCCOCCO)C(=O)c2c(O)ccc(O)c21`
*A* > 100 µM (inactive)

*Q* Input `NCCCn1c(Cl)nc2ccccc21`
*A* > 100 µM (inactive)

*Q* Thanks! And C=C(C)CC1(O[Si](C)(C)C)C(=O)C(OCC)=C1OCC (stereo not drawn) ?
*A* > 100 µM (inactive)

*Q* Let us now turn to `CC1=C[C@H](C[C@]2(C)c3c(c4c(C)cccc4oc3=O)O[C@@H]2C)OC1=O`
*A* > 100 µM (inactive)

---

system: MDA-MB-231; experiment: NCI tumour cell line growth inhibition, 48 h
Calls of active or inactive are those of the source. No stated cut-off is given here; in the data, active = GI50 up to about 1.1 µM and inactive = higher.
OBSERVATION_TYPE: GI50

Here are 2 compounds together with their reported answers.
*Q* Could you share what GI50 was measured for `CCN(C(C)=O)c1cnc(/C=N/NC(N)=S)c2ccccc12` , tested on MDA-MB-231?
*A* 18.6 µM (inactive)

*Q* Can you check OC1C#CCSCC#C/C=C\1 (stereo not drawn) next?
*A* > 100 µM (inactive)

Field: next compound
*Q* Checklist item: GI50 tested on MDA-MB-231, entry COC(=O)/C(=N\N)C(C(=O)C(=O)Nc1cc(Cl)ccc1Cl)c1nc2ccc([N+](=O)[O-])cc2nc1O (stereo not drawn) , value?
*A* > 100 µM (inactive)

---

tested on: T47D; experiment: NCI tumour cell line growth inhibition, 48 h
Activity calls are given as the source filed them. No stated cut-off is given here; in the data, active = GI50 up to about 1.1 µM and inactive = higher.
Respond with a class label; see active, inactive

*Q* Recorded test call requested for `COc1ccc(/C=C/C(=O)/C=C/c2ccc(OC)cc2)cc1`
*A* inactive

*Q* Queued: `C=CC(=O)N1C/C(=C\c2ccc(Cl)cc2)C(=O)/C(=C/c2ccc(Cl)cc2)C1`
*A* inactive

*Q* And the next one, `O=C1c2ccccc2C(=O)c2c1ccc1conc21` ?
*A* active

*Q* Next record, please: `O=C(O)C(SC1=NC(=O)C2(NN1)c1ccccc1-c1ccccc12)SC1=NC(=O)C2(NN1)c1ccccc1-c1ccccc12`
*A* inactive

*Q* Can you handle `CCOC(=O)CC[C@H](N)C(=O)N[C@H](Cc1ccc(N(CCCl)CCCl)cc1)C(=O)OCC` next?
*A* active

*Q* NC(=O)c1ncn(C2CCC(CP(=O)(O)O)C2)c1N (stereo unspecified) ?
*A* inactive

*Q* And CC1C(OC2O[C@@H]3O[C@@]4(C)CC[C@H]5[C@H](C)CC[C@@H](C2C)[C@@]35O4)O[C@@H]2O[C@@]3(C)CC[C@H]4[C@H](C)CC[C@@H]1[C@@]24O3 (stereo partly specified) ?
*A* inactive

*Q* Try this compound next: CCCCCCCCCCCCCCCCP(=O)(O)OCC(N)C(=O)O (stereo unspecified)
*A* inactive

*Q* Same question, `COc1cc2ccccc2oc1=O` this time
*A* inactive

*Q* Try the compound `CCCCCCc1nn2c(-c3ccc(C)cc3)nnc2s1`
*A* inactive

*Q* Lookup `O=C1[C@@H]2[C@@H](c3ccccc3)[C@]2(Cl)C(=O)[C@H]2[C@H](c3ccccc3)[C@@]12Cl`
*A* inactive

*Q* And the next one, `O=C(Nc1nnc(-c2c(Cl)c(Cl)c(Cl)c(Cl)c2-c2nc3cc(C(=O)c4ccccc4)ccc3[nH]2)o1)c1ccc(Cl)cc1` ?
*A* inactive

*Q* Item: CC(C)(Cl)C(Br)CCC(Br)(CCl)C(Cl)CBr (stereo unspecified)
*A* inactive

*Q* Moving on to `N#Cc1ccc(OCc2ccc3nc(-c4ccccc4)c(Cl)nc3c2)cc1`
*A* inactive

*Q* Also `CN(C)N1C(=O)SCC(c2ccccc2)(c2ccccc2)C1=O` , if possible.
*A* inactive

*Q* // query: O=C1CSC(/C=C/c2ccccc2)N1c1ccc(-c2ccc(-n3c(-c4ccccc4)nc4ccccc4c3=O)cc2)cc1 (stereo unspecified)
*A* inactive
